Reported log partition chloroform / HPLC water, unbuffered, traces of methanol / DMSO by item:
- test_summary: shake flask on a mixture of 185; loss from the water phase only; LC-Orbitrap peak areas
- condition_context: room
Express the reported value numerically, then name its unit.

CN1C(=O)CCS(=O)(=O)C1c1ccc(Cl)cc1 (centres unmarked)
3.591 log10
Cc1ccc([N+](=O)[O-])cc1S(=O)(=O)O
2.228 log10
CCCCCCC(O)CCCCCCCCCCC(=O)OC (centres unmarked)
-0.2735 log10

Requested read-out: log partition chloroform / HPLC water, unbuffered, traces of methanol / DMSO. Entry: `CCCCCCOc1cc(C)c(O)c(C)c1C`
0.3185 log10

Would you mind doing `CCCCNS(=O)(=O)c1ccc(C)cc1` as well?
1.689 log10

Cool, now CCCCC(CC)COC(=O)c1ccccc1C(=O)O (centres unmarked)
0.168 log10

What about this compound? CCCCOC(=O)C(C)Oc1ccc(Oc2ccc(C(F)(F)F)cn2)cc1 (centres unmarked)
2.334 log10

Queued: `C[C@H](CCC(=O)O)[C@H]1CC[C@H]2[C@@H]3CC[C@@H]4C[C@H](O)CC[C@]4(C)[C@H]3CC[C@]12C`
1.423 log10

Ok, now FC(F)C(F)(F)OCC(Cn1cncn1)c1ccc(Cl)cc1Cl (centres unmarked)
0.6534 log10

Next compound: `CCCCc1ccc(O)cc1`
-0.1217 log10

Repeat with `c1ccc(CCCc2ccncc2)cc1`
-0.0585 log10

Moving on to the next compound: CN/C(=N/[N+](=O)[O-])NCC1CCOC1 (centres unmarked)
0.01252 log10

Record: `Cc1cc(C)nc(NS(=O)(=O)c2ccc(N)cc2)n1`
0.1061 log10

Another compound to check: `Cn1cnc([N+](=O)[O-])c1Sc1ncnc2nc[nH]c12`
0.1897 log10

Field entry: CCNC(=O)C1CC(C)CCC1C(C)C (centres unmarked)
0.05708 log10

Follow-up item: `CC(=O)CCc1ccc(OC(C)=O)cc1`
1.426 log10

Can you check `CCc1ccc(C(=O)NN(C(=O)c2cc(C)cc(C)c2)C(C)(C)C)cc1` next?
1.889 log10

Now consider `CC(=O)c1ccc2ccccc2c1` .
-0.4983 log10

Also check `Nc1nc(Cl)nc2c1ncn2[C@H]1C[C@H](O)[C@@H](CO)O1`
-0.3218 log10

For `O=P(OC(CCl)CCl)(OC(CCl)CCl)OC(CCl)CCl` then?
0.2335 log10

====

Item-by-item account of log partition n-octane / HPLC water, unbuffered, traces of methanol / DMSO
- test_summary: shake flask on a mixture of 185; loss from the water phase only; LC-QTOF peak areas
- condition_context: room
Could you give me the number in log10? Just the number is fine.

// below: answered compounds
O=S(=O)(O)C(F)(F)F
-0.9229
CCCOC(=O)c1ccc(C(=O)OCCC)nc1
2.086
O=C(Nc1ccccc1-c1ccc(Cl)cc1)c1cccnc1Cl
1.335
Cc1ccc([N+](=O)[O-])cc1S(=O)(=O)O
0.4393
OCCN(CCO)c1ccccc1
-2.014

# get_value(readout='log partition n-octane / HPLC water, unbuffered, traces of methanol / DMSO', item= `c1coc(-c2nc3ccccc3[nH]2)c1` )
-0.9024

And for `Cn1cnc([N+](=O)[O-])c1Sc1ncnc2nc[nH]c12` ?
-2.343
